- measurement target: porcine pancreatic α-amylase (Sus scrofa, UniProt P00690)
- Sequence (P00690 16-511): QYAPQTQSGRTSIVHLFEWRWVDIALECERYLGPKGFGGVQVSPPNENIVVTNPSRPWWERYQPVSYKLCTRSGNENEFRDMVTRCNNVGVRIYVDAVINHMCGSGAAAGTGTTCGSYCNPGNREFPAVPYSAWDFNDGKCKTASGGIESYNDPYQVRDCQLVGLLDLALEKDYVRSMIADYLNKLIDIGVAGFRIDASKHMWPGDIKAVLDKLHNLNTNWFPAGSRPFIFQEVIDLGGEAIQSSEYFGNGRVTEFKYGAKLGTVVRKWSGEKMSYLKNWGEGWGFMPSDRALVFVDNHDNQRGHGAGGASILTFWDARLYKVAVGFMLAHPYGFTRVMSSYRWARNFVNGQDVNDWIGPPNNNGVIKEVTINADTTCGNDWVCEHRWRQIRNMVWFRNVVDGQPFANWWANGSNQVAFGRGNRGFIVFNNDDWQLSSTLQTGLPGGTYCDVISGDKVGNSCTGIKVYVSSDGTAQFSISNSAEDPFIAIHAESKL
- assay method text: Interaction studies by isothermal titration calorimetry (ITC)
- Type: binding
- measurement context: Ka, 0.1 mM α-amylase, 4 mM flavan-3-ol, phosphate buffer, 298 K, n set to 1
observed property: pKd
One number for each entry, as −log10 of the molar value.

Report measured pKd; entry is Oc1cc(O)c2c(c1)O[C@H](c1ccc(O)c(O)c1)[C@H](O)C2 [EC, (−)-Epicatechin]
3.58

----------
- measurement target: porcine pancreatic α-amylase (Sus scrofa)
- assay method text: Interaction studies by isothermal titration calorimetry (ITC)
- Type: binding
- measurement context: 0.1 mM α-amylase, 4 mM flavan-3-ol, phosphate buffer, 298 K, n set to 1; read-out: Kd
Please respond with reported Kd for every item in the list.
Note: a bare number is incomplete; add the unit.

# annotated cases, reported Kd shown
compound: Oc1cc(O)c2c(c1)O[C@H](c1ccc(O)c(O)c1)[C@H](O)[C@H]2c1c(O)cc(O)c2c1O[C@H](c1ccc(O)c(O)c1)[C@@H](O)C2 [PC B1, procyanidin B1]
Kd: 900 µM
--
compound: Oc1cc(O)c2c(c1)O[C@H](c1ccc(O)c(O)c1)[C@H](O)[C@H]2c1c(O)cc(O)c2c1O[C@H](c1ccc(O)c(O)c1)[C@H](O)C2 [PC B2, procyanidin B2]
Kd: 1100 µM
--
compound: Oc1cc(O)c2c(c1)O[C@H](c1ccc(O)c(O)c1)[C@H](O)C2 [EC, (−)-Epicatechin]
Kd: 300 µM

Next, consider the following compound.
Report measured Kd; entry is Oc1cc(O)c2c(c1)O[C@H](c1ccc(O)c(O)c1)[C@@H](O)C2 [CAT, (+)-Catechin]
500 µM
